Known target mRNA inhibition of a selection of sequences
target: APOL1; details: ASO, A431, 1 µM
After the bases stand the sugars from the 5' end (letter, count) and the backbone: PS all phosphorothioate, else s phosphorothioate and o phosphodiester by linkage. Methylation of C is not given here. e = 2'-O-(2-methoxyethyl) (MOE); k = constrained ethyl (cEt); d = 2'-deoxy (DNA)
Dear colleague, please return just the value in %, with no unit written.

Example entries begin here.
* GTTTCATATTCACCCG (sugars k4 d9 k3, PS) | 97
* TCCGTCAATATATTCT (sugars kkddddekekeddddd, PS) | 96
* TCACATACTCTCTGGG (sugars k4 d9 k3, PS) | 77
* GTGTTATATTTGATCC (sugars k3 d4 k3 e1 d5, PS) | 91

Which measured target mRNA inhibition belongs to TGGTTCAAAAGCAGCA (sugars k2 d4 e3 k2 d5, PS) , tested on APOL1?
91
